The origin of these recorded values is patent US20170334899A1.

Kindly supply the reported IC50 values for the records listed here.
- System: HeLa
- assay-details: Proliferation assay (crystal violet), HeLa
- Assay type: cell-based
- measurement-setup: Homo sapiens, HeLa, 96 h, HeLa cells; 4 days incubation; crystal violet staining; read-out: IC50 inhibition of proliferation, HeLa
Write the answer as a number in nM, unit excluded.

Just so you know, measured IC50 for Cc1nsc(Nc2cnc(C(F)(F)F)cn2)c1C(=O)Nc1ccc(OCC2CCN(CC(F)(F)F)CC2(F)F)nc1 (stereo not drawn) [Example 392] came out at 490

Just so you know, measured IC50 for Cc1nsc(Nc2cnc3ccccc3n2)c1C(=O)Nc1ccc(NCCN(C)C(=O)OC(C)(C)C)nc1 [Example 434] came out at 8000

Just so you know, measured IC50 for Cc1nsc(Nc2cnc3ccccc3n2)c1C(=O)Nc1cccc(C(=O)NCC(F)(F)F)c1 [Example 64] came out at 2700

Just so you know, measured IC50 for Cc1nsc(Nc2cnc(C(F)(F)F)cn2)c1C(=O)Nc1ccc(OCC2CCN(CC(F)F)CC2)nc1 [Example 345] came out at 270

Just so you know, measured IC50 for Cc1nsc(Nc2cnc(C(F)(F)F)cn2)c1C(=O)Nc1ccc(OC2CCCN(C(CF)CF)C2)nc1 (stereo not drawn) [Example 333] came out at 1200

Just so you know, measured IC50 for Cc1nsc(Nc2cnc(C(F)(F)F)cn2)c1C(=O)Nc1ccc(OCCN(C)CCC(F)(F)F)nc1 [Example 351] came out at 350

Just so you know, measured IC50 for Cc1nsc(Nc2cnc(C(F)(F)F)cn2)c1C(=O)Nc1ccc(O[C@H]2CCN(CC(F)(F)F)C2)nc1 [Example 383] came out at 280

Just so you know, measured IC50 for Cc1nsc(Nc2cnc(C(F)(F)F)cn2)c1C(=O)Nc1ccc(CCC2CCN(CCC(F)(F)F)CC2)nc1 [Example 420] came out at 630

Just so you know, measured IC50 for Cc1nsc(Nc2cnccn2)c1C(=O)Nc1ccc(OC2CCCN(C(=O)OC(C)(C)C)C2)nc1 (stereo not drawn) [Example 41] came out at 10000

Just so you know, measured IC50 for Cc1nsc(Nc2cnc3ccccc3n2)c1C(=O)Nc1cccc(C(=O)N[C@H](C(=O)O)[C@@H](C)OC(C)(C)C)c1 [Example 104] came out at 6400

Just so you know, measured IC50 for Cc1nsc(Nc2cncc(C(F)(F)F)n2)c1C(=O)Nc1ccc(F)c(OC2CCN(CC(F)F)CC2)c1 [Example 268] came out at 310

Just so you know, measured IC50 for Cc1nsc(Nc2cnc(C(F)(F)F)cn2)c1C(=O)Nc1ccc(F)c(O[C@H]2CCN(CC(F)F)C2)c1 [Example 417] came out at 410

Just so you know, measured IC50 for Cc1nsc(Nc2cnc3ccccc3n2)c1C(=O)Nc1cccc(C(=O)N2CCN(c3ccccc3F)CC2)c1 [Example 78] came out at 7000

Just so you know, measured IC50 for Cc1nsc(Nc2cnc(C(F)(F)F)cn2)c1C(=O)Nc1ccc(OCCNCC(F)F)nc1 [Example 305] came out at 1100

---

- Tested on: HeLa
- assay-details: Proliferation assay (crystal violet), HeLa
- Format: cell-based
- measurement-setup: Homo sapiens, HeLa, 96 h, HeLa cells; 4 days incubation; crystal violet staining; read-out: IC50 inhibition of proliferation, HeLa
- Experimental: Cultivated tumor cells (cells were ordered from ATCC, except HeLa-MaTu and HeLa-MaTu-ADR, which were ordered from EPO-GmbH, Berlin) were plated at a density of 1000 to 5000 cells/well, depending on the growth rate of the respective cell line, in a 96-well multititer plate in 200 μL of their respective growth medium supplemented 10% fetal calf serum. […] Absorbtion was determined by photometry at a wavelength of 595 nm. […] The IC50 values were determined by means of a 4 parameter fit.
reported-endpoint: pIC50
Scale for pIC50: -log10 of concentration given in mol/L; no unit attached.

Just so you know, measured pIC50 for `CC(=O)Nc1cc(NC(=O)c2c(C)nsc2Nc2cnc(C(F)(F)F)cn2)ccc1F` came out at 5.29

Just so you know, measured pIC50 for `Cc1nsc(Nc2cncc(C(F)(F)F)n2)c1C(=O)Nc1ccc(OC2CCN(CC(F)(F)F)CC2)nc1` came out at 6.16

Just so you know, measured pIC50 for `Cc1nsc(Nc2cnc3ccccc3n2)c1C(=O)Nc1cccc(C(=O)N2CCOCC2)c1` came out at 5.00

---

reported-endpoint: IC50

Record Cc1nsc(Nc2cnc(C(F)(F)F)cn2)c1C(=O)Nc1ccc(O[C@@H]2CCN(CC(F)F)C[C@@H]2F)nc1 [Example 137] has catalytic domain of human Bub1 (amino acids 704-1085) (Homo sapiens, UniProt O43683) IC50 equal to > 20 µM

Record CCCN1C[C@H](F)[C@H](Oc2ccc(NC(=O)c3c(C)nsc3Nc3cnc(C(F)(F)F)cn3)cn2)C1 [Example 408] has catalytic domain of human Bub1 (amino acids 704-1085) (Homo sapiens, UniProt O43683) IC50 equal to > 20 µM

Record Cc1nsc(Nc2cncc(C(F)(F)F)n2)c1C(=O)Nc1ccc(C(=O)NC2CCN(CC(F)(F)F)CC2)cc1 [Example 167] has catalytic domain of human Bub1 (amino acids 704-1085) (Homo sapiens, UniProt O43683) IC50 equal to > 20 µM

Record Cc1nsc(Nc2cnc(C(F)(F)F)cn2)c1C(=O)Nc1ccc(F)c(OC2CCN(CC(F)(F)F)C2)c1 (centres unmarked) [Example 315] has catalytic domain of human Bub1 (amino acids 704-1085) (Homo sapiens, UniProt O43683) IC50 equal to ≥ 20 µM

Record Cc1nsc(Nc2cnc(C(F)(F)F)cn2)c1C(=O)Nc1ccc(OC2CCN(CC(F)(F)F)C2)nc1 (centres unmarked) [Example 297] has catalytic domain of human Bub1 (amino acids 704-1085) (Homo sapiens, UniProt O43683) IC50 equal to > 20 µM

Record Cc1nsc(Nc2ccc(C#N)cn2)c1C(=O)Nc1ccc(OC2CCN(CCF)CC2)nc1 [Example 29] has catalytic domain of human Bub1 (amino acids 704-1085) (Homo sapiens, UniProt O43683) IC50 equal to ≥ 20 µM

Record Cc1nsc(Nc2cnc3ccccc3n2)c1C(=O)Nc1cccc(NS(=O)(=O)C2CN(CCF)C2)c1 [Example 287] has catalytic domain of human Bub1 (amino acids 704-1085) (Homo sapiens, UniProt O43683) IC50 equal to > 20 µM

Record Cc1nsc(Nc2cncc(C(F)(F)F)n2)c1C(=O)Nc1ccc(OC2CCN(C(C)C)CC2)nc1 [Example 218] has catalytic domain of human Bub1 (amino acids 704-1085) (Homo sapiens, UniProt O43683) IC50 equal to > 20 µM

Record Cc1nsc(Nc2cnc3ccccc3n2)c1C(=O)Nc1ccc(NCC2CCN(C(=O)OC(C)(C)C)CC2)nc1 [Example 238] has catalytic domain of human Bub1 (amino acids 704-1085) (Homo sapiens, UniProt O43683) IC50 equal to > 20 µM

Record Cc1nsc(Nc2cnccn2)c1C(=O)Nc1ccc(OCCCNC(=O)OC(C)(C)C)nc1 [Example 47] has catalytic domain of human Bub1 (amino acids 704-1085) (Homo sapiens, UniProt O43683) IC50 equal to ≥ 20 µM

Record Cc1nsc(Nc2cnc3ccccc3n2)c1C(=O)Nc1ccc(Oc2cccnc2)nc1 [Example 231] has catalytic domain of human Bub1 (amino acids 704-1085) (Homo sapiens, UniProt O43683) IC50 equal to > 20 µM

Record Cc1nsc(Nc2cnc(C(F)(F)F)cn2)c1C(=O)Nc1ccc(OCCNCC(F)(F)F)nc1 [Example 322] has catalytic domain of human Bub1 (amino acids 704-1085) (Homo sapiens, UniProt O43683) IC50 equal to ≥ 20 µM

Record Cc1nsc(Nc2cnc(C(F)(F)F)cn2)c1C(=O)Nc1ccc(OC2CCN(CCF)CC2)c(F)c1 [Example 162] has catalytic domain of human Bub1 (amino acids 704-1085) (Homo sapiens, UniProt O43683) IC50 equal to > 20 µM

Record Cc1nsc(Nc2cnc(C(F)(F)F)cn2)c1C(=O)Nc1ccc(N2CCN(CC(F)(F)F)CC2)cn1 [Example 373] has catalytic domain of human Bub1 (amino acids 704-1085) (Homo sapiens, UniProt O43683) IC50 equal to > 20 µM

---

- Test system: human cervical tumor cell line HeLa (ATCC CCL-2)
- assay-details: SAC-Formation - Nocodazole-Induced Assay
- Assay type: cell-based
- measurement-setup: Homo sapiens, HeLa, 24 h, HeLa cells, nocodazole 0.1 μg/ml together with test compound, decrease of mitotic cells (phospho-histone H3 Ser10)
Kindly supply the reported pIC50 values for the records listed here.
Scale for pIC50: -log10 of concentration given in mol/L; no unit attached.

Just so you know, measured pIC50 for Cc1nsc(Nc2cnc3ccccc3n2)c1C(=O)Nc1cccc(C(=O)N(C)CCc2ccncc2)c1 [Example 82] came out at 5.43

Just so you know, measured pIC50 for Cc1nsc(Nc2cnc(C(F)(F)F)cn2)c1C(=O)Nc1ccc(O[C@@H]2CCN(CC(F)(F)F)C2)nc1 [Example 380] came out at 6.47

Just so you know, measured pIC50 for Cc1nsc(Nc2cnc3ccccc3n2)c1C(=O)Nc1ccc(OC2CCCNC2)nc1 (stereo not drawn) [Example 32] came out at 5.40

Just so you know, measured pIC50 for C#CCNC(=O)c1cccc(NC(=O)c2c(C)nsc2Nc2cnc3ccccc3n2)c1 [Example 73] came out at 6.60

Just so you know, measured pIC50 for Cc1nsc(Nc2cnc3ccccc3n2)c1C(=O)Nc1cccc(C(=O)N2CCN(c3cnccn3)CC2)c1 [Example 79] came out at 6.05

Just so you know, measured pIC50 for Cc1nsc(Nc2cnc(C(F)(F)F)cn2)c1C(=O)Nc1ccc(C2CCN(CC(F)F)CC2)nc1 [Example 357] came out at 7.36

Just so you know, measured pIC50 for Cc1nsc(Nc2cnc(C(F)(F)F)cn2)c1C(=O)Nc1ccc(F)c(O[C@H]2CCN(CC(F)F)C2)c1 [Example 417] came out at 8.03

Just so you know, measured pIC50 for Cc1nsc(Nc2cnc3ccccc3n2)c1C(=O)Nc1cccc(C(=O)N[C@H](C(=O)O)[C@@H](C)O)c1 [Example 105] came out at 4.70

Just so you know, measured pIC50 for Cc1nsc(Nc2cnc(C(F)(F)F)cn2)c1C(=O)Nc1ccc(N2CCN(CCC(F)(F)F)CC2)cn1 [Example 374] came out at 6.92

Just so you know, measured pIC50 for Cc1nsc(Nc2cnc3ccccc3n2)c1C(=O)Nc1cccc(NS(=O)(=O)C2CN(CCC(F)(F)F)C2)c1 [Example 288] came out at 5.11

Just so you know, measured pIC50 for Cc1nsc(Nc2cnc(C(F)(F)F)cn2)c1C(=O)Nc1ccc(OCCNCC(F)(F)F)nc1 [Example 322] came out at 7.16

Just so you know, measured pIC50 for Cc1nsc(Nc2cnc3ccccc3n2)c1C(=O)Nc1cccc(C(=O)NCCCN2CCOCC2)c1 [Example 95] came out at 7.17

Just so you know, measured pIC50 for Cc1nsc(Nc2cnc(C(F)(F)F)cn2)c1C(=O)Nc1ccc(O[C@H]2CCCN(CCC(F)(F)F)C2)nc1 [Example 390] came out at 6.96

Just so you know, measured pIC50 for Cc1nsc(Nc2cnc(C(F)(F)F)cn2)c1C(=O)Nc1ccc(F)c(OCCCN(C)CC(F)F)c1 [Example 301] came out at 6.96

Just so you know, measured pIC50 for Cc1nsc(Nc2cncc(C(F)(F)F)n2)c1C(=O)Nc1ccc(OCCO)nc1 [Example 276] came out at 6.46
